- Tested System: Rlk (Homo sapiens)
- Sequence (P42681 whole entry, species assumed): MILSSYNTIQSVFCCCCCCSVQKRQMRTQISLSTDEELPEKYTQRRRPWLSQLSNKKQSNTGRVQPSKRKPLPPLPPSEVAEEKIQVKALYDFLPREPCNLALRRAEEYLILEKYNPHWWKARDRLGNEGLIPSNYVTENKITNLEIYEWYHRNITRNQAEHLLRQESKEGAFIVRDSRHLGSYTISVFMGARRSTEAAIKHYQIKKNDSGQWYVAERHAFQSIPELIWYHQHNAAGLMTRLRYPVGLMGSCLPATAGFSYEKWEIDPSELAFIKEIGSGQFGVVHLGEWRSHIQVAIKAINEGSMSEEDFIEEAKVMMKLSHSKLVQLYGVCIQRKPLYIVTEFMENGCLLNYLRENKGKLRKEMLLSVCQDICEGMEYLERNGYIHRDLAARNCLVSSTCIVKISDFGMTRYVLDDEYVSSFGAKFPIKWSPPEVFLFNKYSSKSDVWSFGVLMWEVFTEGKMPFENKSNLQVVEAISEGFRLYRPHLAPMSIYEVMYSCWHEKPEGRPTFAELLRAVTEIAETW
- Assay Summary: RLK Inhibition Assay, coupled enzyme assay
- Type: biochemical
- Protocol Conditions: enzyme inhibition data (Ki), Table 11
pKi: −log10 of the molar value.
// reported pKi per item

Reference set, count: 4
>>> value_reported("NC1CCN(Cc2cccc(C3=CN4NC(N)C(c5ccccn5)=C4N=C3)c2)CC1 (stereo not drawn)")
"5.30 to 6.30"
>>> value_reported("NCc1ccc(-c2cnc3c(-c4ccccn4)c(N)nn3c2)cc1")
"5.30 to 6.30"
>>> value_reported("NCc1cccc(-c2cnc3c(-c4ccccn4)c(N)nn3c2)c1")
"5.30 to 6.30"
>>> value_reported("Nc1nn2cc(-c3ccc(CN4CCNCC4)cc3)cnc2c1-c1ccccn1")
"> 6.30"

[Q] May I ask what pKi has been recorded for CN(C)Cc1ccc(-c2cnc3c(-c4ccccn4)c(N)nn3c2)cc1 ?
[A] 5.30 to 6.30

[Q] Fill in the blank: the reported pKi of Nc1nn2cc(-c3ccc(CNC4CCNCC4)cc3)cnc2c1-c1ccccn1 is ____.
[A] 5.30 to 6.30

[Q] Consider the molecule shown here: CN(C)Cc1cccc(-c2cnc3c(-c4ccccn4)c(N)nn3c2)c1 What is its recorded pKi?
[A] 5.30 to 6.30

[Q] Reported pKi, molecule CNCCCN(C)Cc1ccc(-c2cnc3c(-c4ccccn4)c(N)nn3c2)cc1 : ____
[A] > 6.30

[Q] Quick check: pKi of CNCc1ccc(-c2cnc3c(-c4ccccn4)c(N)nn3c2)cc1 ?
[A] 5.30 to 6.30

Measured values drawn from patent US7528138B2 for this set.
